- study-target: T1, human amylin-3 (a) receptor (human, UniProt P30988 25-474; O60896 24-148)
- T1 sequence (looked up) 1: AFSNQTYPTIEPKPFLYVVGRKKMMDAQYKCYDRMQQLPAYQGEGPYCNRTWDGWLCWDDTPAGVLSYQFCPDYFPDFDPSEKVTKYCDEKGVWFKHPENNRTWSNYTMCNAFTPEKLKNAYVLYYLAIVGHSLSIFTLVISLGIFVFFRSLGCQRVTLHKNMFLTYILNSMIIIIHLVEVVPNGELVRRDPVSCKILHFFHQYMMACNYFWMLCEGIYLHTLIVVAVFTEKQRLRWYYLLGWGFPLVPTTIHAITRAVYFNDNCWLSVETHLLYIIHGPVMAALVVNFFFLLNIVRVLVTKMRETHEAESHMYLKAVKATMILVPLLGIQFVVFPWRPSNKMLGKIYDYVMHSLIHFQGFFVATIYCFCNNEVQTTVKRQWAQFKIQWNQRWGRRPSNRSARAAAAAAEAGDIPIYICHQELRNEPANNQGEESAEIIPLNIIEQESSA
- T1 sequence (looked up) 2: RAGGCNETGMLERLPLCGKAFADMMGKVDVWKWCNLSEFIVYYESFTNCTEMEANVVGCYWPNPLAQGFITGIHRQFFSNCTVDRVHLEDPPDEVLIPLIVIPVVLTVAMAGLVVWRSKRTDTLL
- test-protocol: cell-based or functional assay
Starred links: 1 amine or outer side, 2 acyl side, 3 side chain; linkers in the order of their positions; H or OH if unused. Non-standard residues stand in square brackets, D forms with d. Groups on a side chain read outwards from the residue. *: point of attachment. C20 diacid = O=C(O)CCCCCCCCCCCCCCCCCCC(=O)*; γGlu = O=C(O)[C@H](CCC(=O)[*:2])N[*:1]; Trx = NC[C@H]1CC[C@H](C(=O)O)CC1; AEEA = NCCOCCOCC(=O)O; Aib = CC(C)(N)C(=O)O
measured-endpoint: Human AmyR3 potency [EC50 (pM)]
Use pM as the unit, but write only the number.

[[record]]
binder = "Compound 0416 (peptide) peptide: HAEGTFTSK([AEEA-AEEA-γGlu-Trx-C20 diacid])VSSYLEEQAAREFIEWLVRGRGEASELSTAALGRLSAELHELATLPRTETGSGSP-NH2"
measured_endpoint = "Human AmyR3 potency [EC50 (pM)]"
readout_number = 18.3


QUERY: # Human AmyR3 potency [EC50 (pM)] lookup, item Compound 0417 (peptide) peptide: H[Aib]EGTFTSK([AEEA-AEEA-γGlu-Trx-C20 diacid])VSSYLEEQAAREFIEWLVRGRGEASELSTAALGRLSAELHELATLPRTETGSGSP-NH2
RESULT: 21
